- STUDY TARGET: human V1a receptor (Homo sapiens)
- Construct: expressed in transfected cells; host or cells: CHO K1 (ATCC), also stably transfected with a modified aequorin
- Sequence (P37288 whole entry): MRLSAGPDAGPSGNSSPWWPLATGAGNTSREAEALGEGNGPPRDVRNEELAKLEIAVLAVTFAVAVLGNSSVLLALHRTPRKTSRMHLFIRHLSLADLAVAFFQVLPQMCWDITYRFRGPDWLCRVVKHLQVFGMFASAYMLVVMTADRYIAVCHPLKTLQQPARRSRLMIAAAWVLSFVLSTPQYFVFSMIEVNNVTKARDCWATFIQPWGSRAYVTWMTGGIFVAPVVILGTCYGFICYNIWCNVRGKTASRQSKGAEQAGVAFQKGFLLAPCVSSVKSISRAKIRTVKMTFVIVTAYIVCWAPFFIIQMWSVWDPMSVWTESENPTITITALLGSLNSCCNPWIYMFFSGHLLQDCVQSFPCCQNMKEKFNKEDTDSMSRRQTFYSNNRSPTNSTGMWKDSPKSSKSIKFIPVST
- PROCEDURE TEXT: Cellular in vitro assay for determining vasopressin receptor activity, V1a receptor cell line (CHO, aequorin luminescence)
- Assay type: cell-based
- CONDITION NOTES: selectivity ratio IC50 hV2 / IC50 hV1a

COMPOUND	ratio IC50 hV2/hV1a
O=C(Nc1ncccc1-n1cnc(Cn2nc(-c3ccc(Cl)cc3)n(C[C@H](O)C(F)(F)F)c2=O)n1)[C@H]1C[C@@H]1F (racemic)	321.6
O=C(c1ncccc1-n1cnc(Cn2nc(-c3ccc(Cl)cc3)n(C[C@H](O)C(F)(F)F)c2=O)n1)N1CCC[C@H]1C(F)(F)F	31.6
CC1(NC(=O)c2cccc(Cl)c2-n2cnc(Cn3nc(-c4ccc(Cl)cc4)n(C[C@H](O)C(F)(F)F)c3=O)n2)CC1	216.8
CC1(C(=O)Nc2ncccc2-n2cnc(Cn3nc(-c4ccc(Cl)cc4)n(C[C@H](O)C(F)(F)F)c3=O)n2)CC1	325.9
CC1CCC(C)C1NC(=O)c1ccccc1-n1cnc(Cn2nc(-c3ccc(Cl)cc3)n(C[C@H](O)C(F)(F)F)c2=O)n1 (stereo partly drawn)	38.1
O=C1NCCN1CCNc1ccncc1-n1cnc(Cn2nc(-c3ccc(Cl)cc3)n(C[C@H](O)C(F)(F)F)c2=O)n1	5.1
CC1(C)CCCN1C(=O)c1ccccc1-n1cnc(Cn2nc(-c3ccc(Cl)cc3)n(C[C@H](O)C(F)(F)F)c2=O)n1	453.6
O=C(Nc1cccnc1-n1cnc(Cn2nc(-c3ccc(Cl)cc3)n(C[C@H](O)C(F)(F)F)c2=O)n1)C1CS(=O)(=O)C1	58.3
Cn1nccc1NC(=O)c1ccccc1-n1cnc(Cn2nc(-c3ccc(Cl)cc3)n(C[C@H](O)C(F)(F)F)c2=O)n1	457.6
CN1CC2CC1CN2C(=O)c1ccccc1-n1cnc(Cn2nc(-c3ccc(Cl)cc3)n(C[C@H](O)C(F)(F)F)c2=O)n1 (stereo partly drawn)	476.9
O=C(N[C@H]1C[C@H]1F)c1cccnc1-n1nc(Cn2nc(-c3ccc(Cl)cc3)n(C[C@H](O)C(F)(F)F)c2=O)nc1C(=O)N1CCS(=O)(=O)CC1 (racemic)	21.8
NC(=O)[C@H]1CCCN1C(=O)c1ccccc1-n1cnc(Cn2nc(-c3ccc(Cl)cc3)n(C[C@H](O)C(F)(F)F)c2=O)n1	46.5

Reference source for all entries: patent US11173151B2
